Below are compounds with their Ki as measured on NUAK1 (Homo sapiens (Human), UniProt O60285).
Sequence (O60285 whole entry): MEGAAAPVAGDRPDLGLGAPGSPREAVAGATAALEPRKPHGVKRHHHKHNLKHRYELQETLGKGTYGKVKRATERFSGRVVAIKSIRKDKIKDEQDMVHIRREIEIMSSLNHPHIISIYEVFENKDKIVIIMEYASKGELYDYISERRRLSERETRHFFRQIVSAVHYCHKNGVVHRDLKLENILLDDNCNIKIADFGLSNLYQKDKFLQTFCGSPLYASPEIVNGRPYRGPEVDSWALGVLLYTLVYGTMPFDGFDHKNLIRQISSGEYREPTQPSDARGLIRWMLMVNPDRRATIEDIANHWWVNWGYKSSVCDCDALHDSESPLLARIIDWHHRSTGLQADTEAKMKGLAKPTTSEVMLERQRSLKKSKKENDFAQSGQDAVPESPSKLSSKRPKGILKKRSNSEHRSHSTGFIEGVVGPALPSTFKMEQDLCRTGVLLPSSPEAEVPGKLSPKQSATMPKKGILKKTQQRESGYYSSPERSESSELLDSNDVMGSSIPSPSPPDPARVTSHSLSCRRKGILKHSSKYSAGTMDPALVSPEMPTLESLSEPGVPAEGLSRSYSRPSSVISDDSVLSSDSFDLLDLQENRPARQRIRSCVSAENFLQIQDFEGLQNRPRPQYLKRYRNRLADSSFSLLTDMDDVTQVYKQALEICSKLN
Answers are plain numbers, in nM.

COC(=O)c1ccc2c(c1)/C(=C(/Nc1ccc(N(C)C(=O)CN3CCN(C)CC3)cc1)c1ccccc1)C(=O)N2 : 11
CN1CCN(CC(=O)N(C)c2ccc(N/C(=C3\C(=O)Nc4ccccc43)c3ccccc3)cc2)CC1 : 1.7

API: the following record is the query input.
For NUAK1 (Homo sapiens (Human), UniProt O60285), give the measured Ki of the entry `CN1CCN(CC(=O)N(C)c2ccc(N/C(=C3\C(=O)Nc4ccc(C(=O)O)cc43)c3ccccc3)cc2)CC1`
8.6
